target: IL-17A(FLAG-Tagged): IL-17RA(His-Tagged) (Homo sapiens, UniProt Q16552, K93Q); experiment: IL-17A(FLAG-Tagged): IL-17RA(His-Tagged) Binding Disruption Eu-HTRF Assay; conditions: IL-17A/IL-17RA binding disruption, simple average if tested more than once
Sequence (Q16552 with tags, fused parts or gaps K93Q): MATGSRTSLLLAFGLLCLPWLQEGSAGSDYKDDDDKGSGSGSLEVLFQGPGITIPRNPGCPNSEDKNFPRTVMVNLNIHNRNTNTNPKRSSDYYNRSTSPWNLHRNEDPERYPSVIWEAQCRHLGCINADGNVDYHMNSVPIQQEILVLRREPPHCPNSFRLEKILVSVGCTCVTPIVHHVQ
OBSERVABLE: IC50 (nM)

Previously resolved entries follow.
> print(dat)
                                   molecule  observable  value.observed
1  CC(C)n1nccc1C(=O)N[C@H](c1cn2ncc([C@H](NC(=O)CC3CCCC3(F)F)C3CC3)cc2n1)C1CCC(F)(F)CC1 (stereo partly drawn)        IC50             170
2  O=C(CC1CC(F)(F)C1)N[C@@H](c1cnn2cc([C@@H](NC(=O)c3nonc3C3(O)CCCC3)C3CCC(F)(F)CC3)nc2c1)C1CC1        IC50              94

[A] CC(C)n1nccc1C(=O)N[C@H](c1cn2ncc([C@H](NC(=O)CC(C)(C)C(F)F)C3CC3)cc2n1)C1CCC(F)(F)CC1
[B] N#Cc1cncc(C(=O)N[C@H](c2cn3ncc([C@H](NC(=O)CCC(F)(F)F)C4CC4)cc3n2)C2CCC(F)(F)CC2)c1
Exam item: Could you tell me which of A and B has the lower IC50 reading? Mark your selection by writing its label.
Marked response: A
(A: 160 nM, B: 810 nM)

[A] Cc1nonc1C(=O)N[C@H](c1cn2ncc([C@H](NC(=O)[C@@]34C[C@@H]3[C@@H](F)C4)C3CC3)cc2n1)C1CCC(F)(F)CC1 (relative stereo)
[B] O=C(CCC(F)(F)F)N[C@@H](c1cnn2cc([C@@H](NC(=O)c3cnnn3CC3CCC3(F)F)C3CCC(F)(F)CC3)nc2c1)C1CC1 (stereo partly drawn)
Exam item: // compare measured IC50, left A , right B , return larger Mark your selection by writing its label.
Marked response: A

---

target: IL-17A(FLAG-Tagged): IL-17RA(His-Tagged) (Homo sapiens, UniProt Q16552, K93Q); assay: IL-17A(FLAG-Tagged): IL-17RA(His-Tagged) Binding Disruption Eu-HTRF Assay; conditions: IL-17A/IL-17RA binding disruption, simple average if tested more than once
pIC50: −log10 of the molar value.
OBSERVABLE: pIC50

> print(dat)
                                   molecule  value.observed
1  O=C(CCC(F)(F)F)N[C@@H](c1cnn2cc([C@@H](NC(=O)c3ncnn3CCOC(F)F)C3CCC(F)(F)CC3)nc2c1)C1CC1            7.00

[P] O=C(CCC(F)(F)F)N[C@@H](c1cnn2cc([C@@H](NC(=O)c3ccnc(C(F)(F)F)c3)C3CCC(F)(F)CC3)nc2c1)C1CC1
[Q] O=C(CCC(F)(F)F)NC(c1cnn2cc([C@@H](NC(=O)c3ccccc3)C3CCC(F)(F)CC3)nc2c1)C1CC1 (single isomer, unassigned) [Example 12]
Exam item: // compare measured pIC50, left P , right Q , return larger Mark your selection by writing its label.
Marked response: Q

---

molecular target: IL-17A(FLAG-Tagged): IL-17RA(His-Tagged) (Homo sapiens, UniProt Q16552, K93Q); experiment: IL-17A(FLAG-Tagged): IL-17RA(His-Tagged) Binding Disruption Eu-HTRF Assay; details: IL-17A/IL-17RA binding disruption, simple average if tested more than once
OBSERVABLE: IC50 (nM)

Previously resolved entries follow.
COMPOUND	ENDPOINT_UNIT	IC50
Cc1nonc1C(=O)N[C@H](c1cn2ncc([C@H](NC(=O)[C@H]3CC[C@H]3F)C3CC3)cc2n1)C1CCC(F)(F)CC1 (relative stereo) [Example 336]	nM	5000
COc1cccc(C(=O)N[C@H](c2cn3ncc([C@H](NC(=O)CCC(F)(F)F)C4CC4)cc3n2)C2CCC(F)(F)CC2)n1 [Example 226]	nM	2500
CC(C)n1nccc1C(=O)N[C@H](c1cn2ncc([C@H](NC(=O)CCCF)C3CC3)cc2n1)C1CCC(F)(F)CC1 [Example 251]	nM	200
O=C(CCC(F)(F)F)N[C@@H](c1cnn2cc([C@@H](NC(=O)c3conc3C(F)(F)F)C3CCC(F)(F)CC3)nc2c1)C1CC1 [Example 101]	nM	39
O=C(CCC(F)(F)F)N[C@@H](c1cnn2cc([C@@H](NC(=O)c3cc(F)cc(OC(F)F)c3)C3CCC(F)(F)CC3)nc2c1)C1CC1 [Example 165]	nM	52

[1] [2H]C([2H])([2H])C([2H])([2H])n1nccc1C(=O)N[C@H](c1cn2ncc(C(NC(=O)CC3CC(F)(F)C3)C3CCC3)cc2n1)C1CCC(F)(F)CC1 (single isomer, unassigned) [Example 495]
[2] O=C(CCC(F)(F)F)N[C@@H](c1cnn2cc([C@@H](NC(=O)[C@@H]3C[C@@H]3C(F)F)C3CCC(F)(F)CC3)nc2c1)C1CC1 (relative stereo) [Example 358]
Exam item: // compare measured IC50, left 1 , right 2 , return larger Mark your selection by writing its label.
Marked response: 2
(2: 450 nM, 1: 40 nM)

[1] Cc1nonc1C(=O)N[C@H](c1cn2ncc([C@H](NC(=O)C[C@H]3C[C@@H](F)C3)C3CC3)cc2n1)C1CCC(F)(F)CC1 (single isomer, unassigned) [Example 267]
[2] Cc1nonc1C(=O)N[C@H](c1cn2ncc(C(NC(=O)C(F)(F)CC3CC3)C3(C#N)CC3)cc2n1)C1CCC(F)(F)CC1 (single isomer, unassigned) [Example 435]
Exam item: // compare measured IC50, left 1 , right 2 , return larger Mark your selection by writing its label.
Marked response: 2

---

molecular target: IL-17A(FLAG-Tagged): IL-17RA(His-Tagged) (Homo sapiens, UniProt Q16552, K93Q); assay: IL-17A(FLAG-Tagged): IL-17RA(His-Tagged) Binding Disruption Eu-HTRF Assay; settings: IL-17A/IL-17RA binding disruption, simple average if tested more than once
OBSERVABLE: IC50 (nM)

COMPOUND	OBSERVABLE	VALUE_OBSERVED
N#CC1([C@@H](NC(=O)CC2CC(F)(F)C2)c2cnn3cc([C@@H](NC(=O)c4nonc4C4CC4)C4CCC(F)(F)CC4)nc3c2)CCC1	IC50	45

[a] Cc1nonc1C(=O)N[C@H](c1cn2ncc(C(NC(=O)CCC(F)(F)F)C3CCC3)cc2n1)C1CCC(F)(F)CC1 (single isomer, unassigned)
[b] CC(C)C(NC(=O)CCC(F)(F)F)c1cnn2cc([C@@H](NC(=O)c3ccnn3C(C)C)C3CCC(F)(F)CC3)nc2c1 (single isomer, unassigned) [Example 155]
[c] Cc1nonc1C(=O)N[C@H](c1cn2ncc(C(C)NC(=O)CCC(F)(F)F)cc2n1)C1CCC(F)(F)CC1 (single isomer, unassigned) [Example 510]
Exam item: Arrange the 3 entries by IC50 so the values rise. Ranked list of labels, please, in the requested order.
Marked response: a, c, b
(a: 39 nM, c: 83 nM, b: 130 nM)

---

biological target: IL-17A(FLAG-Tagged): IL-17RA(His-Tagged) (Homo sapiens, UniProt Q16552, K93Q); test: IL-17A(FLAG-Tagged): IL-17RA(His-Tagged) Binding Disruption Eu-HTRF Assay; settings: IL-17A/IL-17RA binding disruption, simple average if tested more than once
OBSERVABLE: IC50 (µM)

COMPOUND	IC50 [µM]
Cc1ncncc1C(=O)N[C@H](c1cn2ncc([C@H](NC(=O)CCC(F)(F)F)C3CC3)cc2n1)C1CCC(F)(F)CC1	1
COCc1cncc(C(=O)N[C@H](c2cn3ncc([C@H](NC(=O)CCC(F)(F)F)C4CC4)cc3n2)C2CCC(F)(F)CC2)c1	0.14
Cc1nonc1C(=O)N[C@H](c1cn2ncc(C(NC(=O)CC3(C(F)(F)F)CC3)C3(C#N)CC3)cc2n1)C1CCC(F)(F)CC1 (single isomer, unassigned) [Example 427]	0.1
O=C(CC1CC(F)(F)C1)N[C@@H](c1cnn2cc([C@@H](NC(=O)c3nonc3N3CCC3)C3CCC(F)(F)CC3)nc2c1)C1CC1	0.069
O=C(CCC(F)(F)F)N[C@@H](c1cnn2cc([C@@H](NC(=O)C3CC3C(F)(F)F)C3CCC(F)(F)CC3)nc2c1)C1CC1 (mixture of isomers)	0.24

[A] O=C(CCC(F)(F)F)N[C@@H](c1cnn2cc([C@@H](NC(=O)c3cnn(CCNCC(F)(F)CCl)n3)C3CCC(F)(F)CC3)nc2c1)C1CC1
[B] O=C(CCC(F)(F)F)N[C@@H](c1cnn2cc([C@@H](NC(=O)[C@@H]3C[C@H]3C(F)F)C3CCC(F)(F)CC3)nc2c1)C1CC1 (single isomer, unassigned)
[C] Cc1nonc1C(=O)N[C@H](c1cn2ncc([C@H](NC(=O)CO[C@@H](C)C(F)(F)F)C3CC3)cc2n1)C1CCC(F)(F)CC1
Exam item: Sequence the entries by IC50, beginning with the highest number. Ranked list of labels, please, in the requested order.
Marked response: B, A, C
